- assay-comment: folding stability dG unfold (combined trypsin and chymotrypsin); higher = more stable
folding stability dG unfold: recorded values

[
  {
    "item-sequence": "SAGGSAGGSAMKTSSGTVSFPDSTVKLSYENFGDGSVKKSVVEVVSRPPPPPVPPSNPHYLQSAGGSAGGSA [r18_176_JUSTAS]",
    "reading-unit": "kcal/mol",
    "relation-sign": "=",
    "folding stability dG unfold": 0.702
  },
  {
    "item-sequence": "SAGGSAGGSAGGYFIRYPGNGREIMIPPDDIEDFLDTLPPGFPPENVKIYPFDPNGKPISAGGSAGGSAGGS [r10_13_TrROS]",
    "reading-unit": "kcal/mol",
    "relation-sign": "<",
    "folding stability dG unfold": -1
  },
  {
    "item-sequence": "SAGGSAGGSAAVPVSETPLGTLPDGRRVRLRRYRDPDGNLYTFLEVEPLPRPLSPADLEKAAASAGGSAGGS [r12_775_TrMRF]",
    "reading-unit": "kcal/mol",
    "relation-sign": "=",
    "folding stability dG unfold": 1.68
  },
  {
    "item-sequence": "SAGMSITIESDTNAPPDLPDIGEEEKLALAEELKEKALADPRYPDEEVVIVRPFKTPGGARWTITVVVSAGG [r19_132_JUSTAS]",
    "reading-unit": "kcal/mol",
    "relation-sign": "=",
    "folding stability dG unfold": 1.32
  },
  {
    "item-sequence": "EAFEKAIEAAIEAAEKGEKETEITLPLPDGKAIRVHATVEVKDGKPVRVDIHVELYGPNNVPYPFTLTITAS [r1_254_TrMRF]",
    "reading-unit": "kcal/mol",
    "relation-sign": "=",
    "folding stability dG unfold": 2.38
  },
  {
    "item-sequence": "SAGGSAPPPNTIPIRVKIEDKNGKWETITFPVKSGDDAKDFLNDNFPNVKVEYDPGAGWVTIEVPKSAGGSA [r15_313_TrROS]",
    "reading-unit": "kcal/mol",
    "relation-sign": "=",
    "folding stability dG unfold": -0.0942
  },
  {
    "item-sequence": "SAGGSAGGSAGGSGSVRIKVYNPKTGEVLELEVPEELVPAAVEAAKALGFEKVEVSPGKSAGGSAGGSAGGS [r4_102_TrMRF]",
    "reading-unit": "kcal/mol",
    "relation-sign": "=",
    "folding stability dG unfold": 2.49
  },
  {
    "item-sequence": "SAGGMKKITIPMKVLEEKFGIPKNTSPEELAKKLNPKEKVEVLSVTSEKSENGEENPTVTVLVIPPKESAGG [r13_723_TrMRF]",
    "reading-unit": "kcal/mol",
    "relation-sign": "=",
    "folding stability dG unfold": -0.22
  },
  {
    "item-sequence": "SAGGSAGGSAGSMTVTLTITDPRNSATTTYTVPSSNYEEFLKANPEIEKNGWTVTVDTNGSAGGSAGGSAGG [r17_176_JUSTAS]",
    "reading-unit": "kcal/mol",
    "relation-sign": "=",
    "folding stability dG unfold": 1.05
  },
  {
    "item-sequence": "SAGGSAGGSYYPIEDPNGMKIWVEPDPDNGMYRIRIQFPEGKKVERTFPPGMPLDDIPIKIKDSAGGSAGGS [r12_261_TrROS]",
    "reading-unit": "kcal/mol",
    "relation-sign": "=",
    "folding stability dG unfold": 0.434
  },
  {
    "item-sequence": "SAGGSVTTETDEYFYPDNLFTVAKTTLYVGSGPVEATAVSYPTFTLVNVHYPDGSVDTFLFTLTDDSSAGGS [r16_108_TrMRF]",
    "reading-unit": "kcal/mol",
    "relation-sign": "=",
    "folding stability dG unfold": 3.08
  },
  {
    "item-sequence": "SAGEIKITVEEVEDGELLVTVEITAESKEEALKALEDLIRELFGEDVEIVSVEFDEETKRIRVTIRIKPSAG [r5_810_TrROS_Hall]",
    "reading-unit": "kcal/mol",
    "relation-sign": "=",
    "folding stability dG unfold": 4.35
  },
  {
    "item-sequence": "SAGGSAGGSAGGMKTITLTTTSPEEAEAAKEKLLKEGPNNLVITYKPPPEPYPENGPRVVSAGGSAGGSAGG [r7_261_JUSTAS]",
    "reading-unit": "kcal/mol",
    "relation-sign": "=",
    "folding stability dG unfold": 0.683
  },
  {
    "item-sequence": "SAGGSAGGSAGGKIYYLDKDLFVIDLPDPKTGKPIKIAIGGDPNRPDEILKLAKELAESSAGGSAGGSAGGS [r10_379_TrMRF]",
    "reading-unit": "kcal/mol",
    "relation-sign": "=",
    "folding stability dG unfold": -0.0301
  }
]

Cited source for all entries: the supplement of paper PMC12764529
